// reported growth for each item listed
Test system: SF-295 CNS
PROTOCOL_SUMMARY: NCI-60 one-dose screen, 48 h (100 = growth as untreated, 0 = no growth, -100 = all killed)
CONDITION_NOTES: 10 µM unless noted
About 83,000 compounds went through this panel and 20% of them were active in at least one assay; those are over-represented in the sample as a whole. The source made the active and inactive calls. Rule for the calls: active = growth percent below 10; inactive = the rest.

[[record]]
smi = "COc1cc2nc3sc(C(=O)Nc4ccc(C(=O)OC(C)C)cc4)c(C(=O)Nc4ccc(Cl)cc4C)n3c(=O)c2cc1OC"
measurement_label = "growth"
value_observed = "42% (inactive)"

[[record]]
smi = "COc1ccc(-c2nc(-c3cn(C)c4ncccc34)cs2)cc1"
measurement_label = "growth"
value_observed = "-25.5% [100 µM] (active)"

[[record]]
smi = "CCOC(=O)C(=CNc1cnc(Nc2ccc(N3CCOCC3)cc2)nc1Oc1ccc(OC)cc1)C(=O)OCC"
measurement_label = "growth"
value_observed = "75.9% (inactive)"


Asked: Name the reported growth value associated with the molecule CN(CCCNC(=O)CCOCCOCCOCCNC(=O)Cc1ccc2ccc3cccc4ccc1c2c34)CCCNc1cc(-c2ccc3ccccc3c2)nc2ccccc12
Given back: -71.1% (active)

Asked: State the recorded growth for this entry: Cn1ccc(=O)nc1
Given back: 82.9% (inactive)

Asked: Endpoint output: growth of C=CC(=O)Nc1ccc(Oc2nccc(Nc3nnc(-c4ccc(C)cc4)s3)n2)cc1 . Value?
Given back: 56.9% (inactive)

Asked: Requested read-out: growth. Entry: NC(=O)c1c(NC(=O)c2cccc(C(F)(F)F)c2)sc2c1CCC(=O)C2
Given back: -12.9% (active)

Asked: I would be grateful if you could share the reported growth for Cc1ccc(S(=O)(=O)Oc2ccc3sc4cccc(NCCN(C)C)c4c(=O)c3c2)cc1 .
Given back: -92.3% (active)

###

Tested on: T-47D breast
PROTOCOL_SUMMARY: NCI-60 one-dose screen, 48 h (100 = growth as untreated, 0 = no growth, -100 = all killed)
CONDITION_NOTES: 10 µM unless noted
About 83,000 compounds went through this panel and 20% of them were active in at least one assay; those are over-represented in the sample as a whole.
Cut-off 90% on growth, inclusive. At or above means yes (1); below means no (0).

Examples from the recorded data:
[[record]]
smi = "CCNc1ccc(-c2nc3ccccc3n3cccc23)cc1"
label = "no (0)"

[[record]]
smi = "Cc1ccc2c(=O)cc(C(=O)Nc3sc4c(c3C(=O)NCc3cccnc3)CCCC4)oc2c1C"
label = "yes (1)"

[[record]]
smi = "Cc1ccc(C(=O)c2ccc(CC(=O)NN3C(=O)c4ccccc4C3=O)n2C)cc1"
label = "yes (1)"

[[record]]
smi = "Cc1ccc2nc(-c3ccc(C(=O)NNC(=S)Nc4ccccc4)cc3)[nH]c2c1"
label = "no (0)"


Asked: Entry COc1cccc(Nc2ncnc3cc(NC(=O)CCl)ccc23)c1 : is its growth no less than 90%?
Given back: no (0)

###

System: K-562 leukemia
PROTOCOL_SUMMARY: NCI-60 one-dose screen, 48 h
CONDITION_NOTES: 10 µM unless noted
This is part of a sample that, as a whole, favours compounds with a hit. Of some 83,000 tested, about 20% had one in any assay. Active and inactive are the calls of the source. How the source made its calls: active means growth percent below 10; inactive means the rest.
Your answer must be one of the following: active, inactive

Asked: I would be grateful if you could indicate the recorded call for Nc1ncnc2c1N=C(c1ccc3c(c1)OCO3)CC(c1cccc(Nc3ccnc4cc(C(F)(F)F)ccc34)c1)N2 (centres undefined) .
Given back: inactive

Asked: Each molecule tested received a call. Report the one for COCCn1cc(-c2csc(-c3c[nH]c4ccc(Br)cc34)n2)c2cccnc21 .
Given back: active

Asked: Dear colleague, could you share the recorded outcome for O=C(Cc1cccc(OC(F)(F)F)c1)Nc1ccc(CCCCc2nnc(NC(=O)Cc3ccccn3)s2)nn1 when you have a moment?
Given back: inactive

Asked: Hi team, can someone confirm the assay call for Cc1ccc(C(=O)c2ccc(CC(=O)NN3C(=O)c4ccccc4C3=O)n2C)cc1 ?
Given back: inactive

Asked: Hi team, can someone confirm the assay call for Cn1c(=O)c2[nH]c(SCC(=O)Nc3ccc(C(=O)/C=C/c4ccccc4Cl)cc3)nc2n(C)c1=O ?
Given back: inactive

Asked: Record lookup: outcome of this test for NS(=O)(=O)c1ccc(NC(=O)/C(=C\c2ccc(Cl)cc2Cl)NC(=O)c2ccccc2)cc1 ?
Given back: inactive

Asked: In this assay, the call recorded for COc1ccc(-c2nc(/C=C3\C(=O)N(C)c4ccccc43)c3ccccn23)cc1 was what?
Given back: inactive

Asked: Recorded call for N#CC1CCc2c(c(-c3ccc4nc(N)sc4c3)nc3ccc4[nH]ncc4c23)C1 (centres undefined) ?
Given back: inactive

Asked: Lab log entry: CN1CCN(c2ccc(NC(=O)c3cncnc3Nc3ccc(OCc4cccc(F)c4)c(Cl)c3)cc2)CC1 — outcome as called in the assay?
Given back: active

Asked: What did the test return for CCN1C(=O)N(CC)C2C1NN=c1s/c(=C\c3ccc[nH]3)c(=O)n12 (centres undefined) ?
Given back: inactive

Asked: # lookup: test call for CCS/C(Nc1ccccc1)=C(\C#N)C(=O)Nc1ccc(OC)cc1
Given back: active

Asked: Returns: the outcome recorded for O=C(Nc1ccccc1O)c1ccc(CNC(=O)c2ccsc2Nc2ccnc(C(F)(F)F)c2)cc1 in this assay.
Given back: active
